- Measurement Target: UniProtKB P13945
- Sequence (P13945 whole entry): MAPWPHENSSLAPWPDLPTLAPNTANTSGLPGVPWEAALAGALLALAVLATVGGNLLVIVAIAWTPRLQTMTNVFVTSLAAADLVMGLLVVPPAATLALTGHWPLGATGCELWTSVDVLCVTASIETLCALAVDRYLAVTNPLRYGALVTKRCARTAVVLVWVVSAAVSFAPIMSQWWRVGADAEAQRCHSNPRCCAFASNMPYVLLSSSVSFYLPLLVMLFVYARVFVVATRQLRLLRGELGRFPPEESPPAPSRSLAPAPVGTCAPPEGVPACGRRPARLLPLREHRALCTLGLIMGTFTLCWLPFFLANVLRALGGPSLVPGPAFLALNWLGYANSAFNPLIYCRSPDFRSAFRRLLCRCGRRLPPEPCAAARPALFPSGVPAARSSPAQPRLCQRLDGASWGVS
- Method Summary: DRUGMATRIX: Adrenergic beta3 radioligand binding (ligand: [125I] Cyanopindolol)
- Assay type: cell membranes, HEK293, Membrane
- Condition Notes: Not Active = under 50% inhibition at 10 µM; read-out: Ki
Reported Metric: pKi
Numbers only, as −log10 of the molar value.

Completed entries (count: 3):
{"columns": ["Molecule", "Measurement Target", "pKi"],
 "data": [
  ["CC(C)(C)NC[C@H](O)COc1nsnc1N1CCOCC1 [TIMOLOL]", "UniProtKB P13945", 6.47],
  ["C#C[C@]1(O)CC[C@H]2[C@@H]3CCC4=Cc5oncc5C[C@]4(C)[C@H]3CC[C@@]21C [DANAZOL]", "UniProtKB P13945", 4.89],
  ["OCCN1CCN(CCCN2c3ccccc3Sc3ccc(C(F)(F)F)cc32)CC1 [FLUPHENAZINE]", "UniProtKB P13945", 4.66]
]}

Note: attention shifts to another entry.
In: Report pKi for CC(C)OC(=O)C(C)(C)Oc1ccc(C(=O)c2ccc(Cl)cc2)cc1 [FENOFIBRATE] please.
Out: 4.03

// data source = ChEMBL document CHEMBL1909046
